# Subject of test: FrdA+SdhE (Escherichia coli)
# Construct: SdhE for this assay: not described
# Sequence (P00363 whole entry): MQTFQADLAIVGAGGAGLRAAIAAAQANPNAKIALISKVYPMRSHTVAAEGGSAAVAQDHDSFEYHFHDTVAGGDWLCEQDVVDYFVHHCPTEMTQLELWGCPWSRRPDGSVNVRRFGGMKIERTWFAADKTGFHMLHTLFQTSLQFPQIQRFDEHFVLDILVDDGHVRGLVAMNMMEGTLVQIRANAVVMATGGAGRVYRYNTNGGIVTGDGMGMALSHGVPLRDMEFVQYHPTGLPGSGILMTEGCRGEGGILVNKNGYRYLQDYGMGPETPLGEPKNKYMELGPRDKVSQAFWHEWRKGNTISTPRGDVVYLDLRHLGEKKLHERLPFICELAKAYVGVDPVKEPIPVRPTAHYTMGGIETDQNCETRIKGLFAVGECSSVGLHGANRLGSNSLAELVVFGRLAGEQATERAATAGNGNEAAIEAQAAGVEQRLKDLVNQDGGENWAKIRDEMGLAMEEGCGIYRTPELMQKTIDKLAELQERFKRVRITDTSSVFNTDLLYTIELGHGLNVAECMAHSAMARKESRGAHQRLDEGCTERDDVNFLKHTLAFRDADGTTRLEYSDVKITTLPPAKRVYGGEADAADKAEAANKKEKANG
# Sequence (P64559 whole entry, further chain): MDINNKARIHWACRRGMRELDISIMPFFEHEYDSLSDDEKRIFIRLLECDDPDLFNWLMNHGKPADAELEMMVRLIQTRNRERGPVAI
# Experiment notes: Optical difference spectroscopy, dicarboxylate binding to FrdA in the presence of SdhE
# Measurement context: read-out: Kd^malonate
Measured quantity: Kd (µM)
Write the number in µM without appending the unit.

What does the data say about its Kd? Entry: O=C(O)CC(=O)O [malonate]
180

---

# Subject of test: SdhA+SdhE (Escherichia coli)
# Sequence (P0AC41 whole entry): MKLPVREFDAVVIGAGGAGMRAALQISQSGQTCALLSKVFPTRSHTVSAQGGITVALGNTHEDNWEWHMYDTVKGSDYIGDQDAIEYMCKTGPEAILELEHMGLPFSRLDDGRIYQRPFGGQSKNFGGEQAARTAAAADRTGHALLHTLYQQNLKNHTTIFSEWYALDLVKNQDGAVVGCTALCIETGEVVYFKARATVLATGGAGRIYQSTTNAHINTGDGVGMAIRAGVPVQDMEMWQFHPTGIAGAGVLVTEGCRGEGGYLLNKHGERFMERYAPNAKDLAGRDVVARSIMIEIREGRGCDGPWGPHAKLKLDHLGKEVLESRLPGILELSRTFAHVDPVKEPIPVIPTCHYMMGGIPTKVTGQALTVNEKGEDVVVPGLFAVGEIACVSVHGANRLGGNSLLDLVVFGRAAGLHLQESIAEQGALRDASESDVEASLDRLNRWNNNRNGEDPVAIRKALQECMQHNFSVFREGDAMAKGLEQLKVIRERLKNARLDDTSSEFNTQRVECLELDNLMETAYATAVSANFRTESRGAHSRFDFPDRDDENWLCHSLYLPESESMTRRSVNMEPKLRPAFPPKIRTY
# Sequence (P64559 whole entry, further chain): as the sequence (P64559 whole entry, further chain) above
# Experiment notes: Optical difference spectroscopy, dicarboxylate binding to SdhA in the presence of SdhE
# Measurement context: read-out: Kd^malonate
Measured quantity: Kd (µM)
The answer is to be given in µM; state only the numeric part.

Recorded Kd for O=C(O)CC(=O)O [malonate] with SdhA+SdhE (Escherichia coli), please?
60
